assayTarget: hT1R1/hT1R3 umami receptor (Homo sapiens, UniProt Q7RTX0+Q7RTX1)
Construct: expressed in transfected cells; host or cells: HEK293 derivative stably expressing Gα15, clone I-17, expression induced with mifepristone
Sequence (Q7RTX1 21-841): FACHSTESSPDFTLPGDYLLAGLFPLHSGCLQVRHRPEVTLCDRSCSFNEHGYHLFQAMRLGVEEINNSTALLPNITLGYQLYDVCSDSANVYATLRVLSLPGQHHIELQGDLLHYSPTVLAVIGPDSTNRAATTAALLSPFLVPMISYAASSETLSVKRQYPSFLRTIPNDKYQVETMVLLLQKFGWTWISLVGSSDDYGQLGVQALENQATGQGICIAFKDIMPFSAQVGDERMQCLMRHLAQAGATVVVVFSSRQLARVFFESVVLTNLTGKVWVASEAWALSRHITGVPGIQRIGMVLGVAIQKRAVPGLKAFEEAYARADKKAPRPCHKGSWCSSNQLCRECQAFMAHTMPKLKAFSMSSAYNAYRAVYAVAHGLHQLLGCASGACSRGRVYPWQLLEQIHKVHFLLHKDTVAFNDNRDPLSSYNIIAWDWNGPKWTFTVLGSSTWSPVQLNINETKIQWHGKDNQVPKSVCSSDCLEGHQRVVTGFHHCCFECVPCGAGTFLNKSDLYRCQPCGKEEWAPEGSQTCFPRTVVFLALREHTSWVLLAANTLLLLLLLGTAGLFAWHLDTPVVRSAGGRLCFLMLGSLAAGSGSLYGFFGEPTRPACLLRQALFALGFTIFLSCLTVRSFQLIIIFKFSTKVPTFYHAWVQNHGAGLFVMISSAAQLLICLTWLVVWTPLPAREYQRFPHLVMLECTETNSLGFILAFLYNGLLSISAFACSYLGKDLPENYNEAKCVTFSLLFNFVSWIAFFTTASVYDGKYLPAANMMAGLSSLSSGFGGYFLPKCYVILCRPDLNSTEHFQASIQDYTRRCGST
Sequence (Q7RTX0 21-852): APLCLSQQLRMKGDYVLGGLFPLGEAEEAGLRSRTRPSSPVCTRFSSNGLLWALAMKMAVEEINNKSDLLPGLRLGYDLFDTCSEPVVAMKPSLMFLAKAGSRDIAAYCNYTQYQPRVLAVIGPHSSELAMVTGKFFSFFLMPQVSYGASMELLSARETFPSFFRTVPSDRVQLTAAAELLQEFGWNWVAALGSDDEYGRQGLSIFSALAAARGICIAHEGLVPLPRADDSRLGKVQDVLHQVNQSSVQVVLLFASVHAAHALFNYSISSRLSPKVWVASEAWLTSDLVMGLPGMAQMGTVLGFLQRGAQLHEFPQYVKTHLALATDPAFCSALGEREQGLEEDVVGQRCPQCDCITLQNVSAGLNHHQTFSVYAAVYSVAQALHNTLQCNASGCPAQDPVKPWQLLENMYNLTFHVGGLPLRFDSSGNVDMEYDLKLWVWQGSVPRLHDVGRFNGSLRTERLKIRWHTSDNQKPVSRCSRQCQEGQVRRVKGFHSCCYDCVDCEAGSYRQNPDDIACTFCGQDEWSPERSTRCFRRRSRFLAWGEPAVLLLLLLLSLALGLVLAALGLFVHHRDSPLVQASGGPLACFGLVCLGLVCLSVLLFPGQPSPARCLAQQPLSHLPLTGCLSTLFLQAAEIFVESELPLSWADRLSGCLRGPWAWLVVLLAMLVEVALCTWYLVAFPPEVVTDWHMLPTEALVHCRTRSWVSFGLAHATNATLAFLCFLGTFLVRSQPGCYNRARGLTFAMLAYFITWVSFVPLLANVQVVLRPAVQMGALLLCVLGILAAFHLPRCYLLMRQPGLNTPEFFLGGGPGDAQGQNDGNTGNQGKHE
testMethodNotes: In vitro hT1R1/hT1R3 umami taste receptor activation assay (FLIPR, dose response)
Format: cell-based
measurementParameters: read-out: EC50 for activation of a hT1R1/hT1R3 umami receptor expressed in an HEK293 cell line
readoutKind: EC50 (nM)

// solved cases for EC50 follow
# compound, readoutKind, readoutUnits, val
data = [
    ("Cc1ccc(CNC(=O)C(=O)NCCc2ccccn2)cc1 [Example 125]", "EC50", "nM", 410),
    ("CCCC(CC)NC(=O)c1ccc(OC)c(C)c1 (centres unmarked) [Example 12]", "EC50", "nM", 120),
]

A. CCCC(CCC)NC(=O)c1ccc(SC)c(C)c1 [Example 51]
B. CCC(CC(C)C)NC(=O)/C=C/c1ccc(OC)cc1 (centres unmarked) [Example 75]
Short answer wanted: higher EC50, A or B ? Return value: the label identifying the chosen record.
B
(B: 240 nM, A: 120 nM)

* * *

assayTarget: hT1R1/hT1R3 umami receptor (Homo sapiens, UniProt Q7RTX0+Q7RTX1)
Construct: expressed in transfected cells; host or cells: HEK293 derivative stably expressing Gα15, clone I-17, expression induced with mifepristone
Sequence (Q7RTX1 21-841): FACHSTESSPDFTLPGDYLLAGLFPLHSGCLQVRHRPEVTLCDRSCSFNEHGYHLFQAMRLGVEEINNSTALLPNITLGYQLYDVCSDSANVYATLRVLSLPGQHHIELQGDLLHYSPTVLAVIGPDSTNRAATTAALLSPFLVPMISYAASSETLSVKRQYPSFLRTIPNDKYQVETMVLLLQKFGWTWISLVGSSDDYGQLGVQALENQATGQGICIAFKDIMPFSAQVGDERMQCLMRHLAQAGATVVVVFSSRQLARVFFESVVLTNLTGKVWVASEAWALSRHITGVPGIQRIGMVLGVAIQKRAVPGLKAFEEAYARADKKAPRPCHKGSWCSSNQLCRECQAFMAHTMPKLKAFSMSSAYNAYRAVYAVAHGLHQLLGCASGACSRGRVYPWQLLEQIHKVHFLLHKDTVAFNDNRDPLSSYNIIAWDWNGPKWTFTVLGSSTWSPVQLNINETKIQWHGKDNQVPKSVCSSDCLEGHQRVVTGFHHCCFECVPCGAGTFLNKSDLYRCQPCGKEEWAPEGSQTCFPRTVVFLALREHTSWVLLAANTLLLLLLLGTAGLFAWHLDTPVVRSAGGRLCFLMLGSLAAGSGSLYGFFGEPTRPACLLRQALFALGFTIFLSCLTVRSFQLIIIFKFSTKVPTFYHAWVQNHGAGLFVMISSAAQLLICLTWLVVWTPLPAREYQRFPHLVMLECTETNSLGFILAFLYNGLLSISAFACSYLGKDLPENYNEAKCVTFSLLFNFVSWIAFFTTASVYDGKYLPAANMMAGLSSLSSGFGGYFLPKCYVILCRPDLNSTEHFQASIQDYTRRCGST
Sequence (Q7RTX0 21-852): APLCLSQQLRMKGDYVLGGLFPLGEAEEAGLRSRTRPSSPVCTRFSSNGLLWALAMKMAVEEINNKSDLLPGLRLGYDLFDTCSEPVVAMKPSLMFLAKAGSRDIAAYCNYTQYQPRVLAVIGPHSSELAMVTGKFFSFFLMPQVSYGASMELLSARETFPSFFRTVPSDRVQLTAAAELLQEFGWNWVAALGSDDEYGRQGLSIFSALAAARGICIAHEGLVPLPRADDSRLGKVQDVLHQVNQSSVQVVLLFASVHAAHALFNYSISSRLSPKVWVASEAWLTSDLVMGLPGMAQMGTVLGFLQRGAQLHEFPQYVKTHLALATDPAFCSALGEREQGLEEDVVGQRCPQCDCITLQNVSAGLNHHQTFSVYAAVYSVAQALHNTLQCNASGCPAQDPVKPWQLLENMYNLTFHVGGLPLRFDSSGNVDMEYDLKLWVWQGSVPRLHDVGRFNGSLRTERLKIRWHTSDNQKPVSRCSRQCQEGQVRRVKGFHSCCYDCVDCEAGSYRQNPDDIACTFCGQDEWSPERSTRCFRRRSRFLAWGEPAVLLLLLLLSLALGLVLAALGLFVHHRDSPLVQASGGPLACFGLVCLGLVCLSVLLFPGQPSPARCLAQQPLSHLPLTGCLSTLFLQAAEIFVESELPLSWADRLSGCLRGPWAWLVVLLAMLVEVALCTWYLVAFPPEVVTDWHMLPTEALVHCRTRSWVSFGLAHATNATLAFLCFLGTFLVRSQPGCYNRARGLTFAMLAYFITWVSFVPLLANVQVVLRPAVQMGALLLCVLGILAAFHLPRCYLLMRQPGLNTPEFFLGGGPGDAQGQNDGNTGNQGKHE
testMethodNotes: In vitro hT1R1/hT1R3 umami taste receptor activation assay (FLIPR, dose response)
Type: cell-based
measurementParameters: Table D, Umami Acrylamides; read-out: Umami EC50
pEC50: −log10 of the molar value.
readoutKind: pEC50

# molecule, pEC50
data = [
    ("COc1ccc(/C=C/C(=O)NC(C(C)C)C(C)C)cc1 [Example D1]", 6.54),
    ("CCC(COC)NC(=O)/C=C/c1ccc(OC)cc1 (stereo not shown)", 5.84),
    ("CCOc1ccc(/C=C/C(=O)NC(C)CC)cc1 (stereo not shown)", 5.88),
]

A. CC(C)/C=C/C(=O)NC1CCCCC1C (stereo not shown)
B. COC(=O)[C@@H](CC(C)C)NC(=O)/C=C/c1ccc(OC)cc1 [Example D2]
For the pair A and B , which member has the lower pEC50 number? Return value: the label identifying the chosen record.
A
(A: 5.89, B: 6.49)

P. CCC/C=C\C(=O)NC(CCC)CCC [Example D9, (Z)-N-(heptan-4-yl)hex-2-enamide]
Q. COc1ccc(/C=C/C(=O)NC(C)CCc2ccccc2)cc1OC (stereo not shown)
Short answer wanted: higher pEC50, P or Q ? Return value: the label identifying the chosen record.
P

Numbers sourced from patent US20060045953A1.
